experimental_target: T1, PBX1-DBD (UniProt P40424 233-295)
T1 sequence: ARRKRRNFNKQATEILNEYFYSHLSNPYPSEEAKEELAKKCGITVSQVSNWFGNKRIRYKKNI
procedure_text: SPR

{"binder": "PBX1 Probe (PBX1-CS-DNA-Biotin) (dsDNA) DNA 1: CGAAATTGATTGATGCTTTAATTGAC DNA 2: GTCAATTAAAGCATCAATCAATTTCG", "unit_label": "nM", "Kd": 0.8}

Data credit: paper PMC8591422
